Tested on: microorganism of Delvotest® MCS test medium
Assay: Delvotest MCS microbial inhibition test, sensitivity for different antibiotics, plate test or tube test (Example 2)
Assay type: cell-based
Conditions: indicator Bromothymol Blue (160 mg·l^−1); tube test; experiment # 7
observed-property: sensitivity
Kindly write the number and append the unit.

Exercise: Query sensitivity on microorganism of Delvotest® MCS test medium for CC(=O)OCC1=C(C(=O)O)N2C(=O)[C@@H](NC(=O)CSc3ccncc3)[C@H]2SC1
Key: 4 ppb

Exercise: Another molecule to check: Nc1ccc(S(=O)(=O)Nc2ncccn2)cc1
Key: 50 ppb

Exercise: Entry CC1(C)S[C@@H]2[C@H](NC(=O)[C@H](N)c3ccccc3)C(=O)N2[C@H]1C(=O)O please
Key: 2 ppb

Exercise: Lookup CC1(C)S[C@@H]2[C@H](NC(=O)Cc3ccccc3)C(=O)N2[C@H]1C(=O)O
Key: 2 ppb

Exercise: Same for Cc1onc(-c2ccccc2Cl)c1C(=O)N[C@@H]1C(=O)N2[C@@H]1SC(C)(C)[C@@H]2C(=O)O
Key: 20 ppb

Exercise: One more molecule: CC1(C)S[C@@H]2[C@H](NC(=O)[C@H](N)c3ccc(O)cc3)C(=O)N2[C@H]1C(=O)O
Key: 4 ppb
